Molecular target: T1, cynoSIRPα (NP_001271679), Extracellular Domain + His-Tag (cynomolgus monkey)
T1 construct: also called CySIRPα NP_001271679; not shown: His-Tag
T1 chain: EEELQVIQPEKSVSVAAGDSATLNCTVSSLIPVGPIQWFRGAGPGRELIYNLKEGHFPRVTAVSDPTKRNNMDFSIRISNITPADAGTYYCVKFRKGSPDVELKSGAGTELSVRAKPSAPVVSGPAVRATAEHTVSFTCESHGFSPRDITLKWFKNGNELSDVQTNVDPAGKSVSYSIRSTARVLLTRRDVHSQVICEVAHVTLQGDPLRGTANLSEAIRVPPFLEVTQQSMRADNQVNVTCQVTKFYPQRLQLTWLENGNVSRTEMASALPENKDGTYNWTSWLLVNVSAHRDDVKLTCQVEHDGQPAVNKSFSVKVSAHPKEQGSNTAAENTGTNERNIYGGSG
Test: SPR, antibody captured on Protein A/G, ECD-His analyte, 1:1 fit
Quick reference: kon of the listed items.
observed.property: kon (M⁻¹ s⁻¹)

binder | unit.of.measurement | recorded.result
Antibody E3 (antibody, human IgG1, kappa, L234A L235A, V domains shown) VH: QVQLQESGPGLVRPSETLSLTCTVSGGSIRNYYWSWIRQPPGKGLEWIGFIYYNGRTFYNPSLKSRVTISLDMSKNQFSLKMTSVTAADTAVYYCARVRAYSGIGLDGTDVWGQGTTVTVSS VL: DIVMTQSPLSLPVTPGEPASISCKSSQSLLYSNGYAYLDWYLQRPGQSPQLLIYQGSNRASGVPDRFSGSGSGTDFTLKISRVEAEDVGVFYCMQALQTPLTFGGGTKVEIKR | M⁻¹ s⁻¹ | 168000
Antibody E17 (antibody, human IgG1, kappa, L234A L235A, V domains shown) VH: QVQLQESGPGLVRPSETLSLTCTVSGGSIRNYYWSWIRQPPGKGLEWMGFIYDNGRTFYNPSLKSRVTISLDMSMNQFSLKMTSVTAADTAVYYCARVRAYSGIGLDGTDVWGQGTTVTVSS VL: DIVMTQSPLSLPVTPGEPASISCKSSQSLLYSNAYNYLDWYLQRPGQSPQLLIYLGSNRASGVPDRFSGSGSGTDFTLKISRVEAEDVGVYYCMQALQTPLTFGGGTKVEIKR | M⁻¹ s⁻¹ | 282000
Antibody E10 (antibody, human IgG1, kappa, L234A L235A, V domains shown) VH: QVQLQESGPGLVRPSETLSLTCTVSGGSIRNYYWSWIRQPPGKGLEWIGFIYYNGRTFYNPSLKSRVTISLDTSKNQFSLKMTSVTAADTAVYYCARVRAYSGIGLDGTDVWGQGTTVTVSS VL: DIVMTQSPLSLPVTPGEPASISCKSSQSLLYSNGYAYLDWYLQRPGQSPQLLIYLGSNRASGVPDRFSGSGSGTDFTLKISRVEAEDVGVYYCMQALQTPLTFGGGTKVEIKR | M⁻¹ s⁻¹ | 216000

Origin of the recorded values: patent US20230012273A1
